Target: T1, human MICA002 on cells (human)
T1 chain: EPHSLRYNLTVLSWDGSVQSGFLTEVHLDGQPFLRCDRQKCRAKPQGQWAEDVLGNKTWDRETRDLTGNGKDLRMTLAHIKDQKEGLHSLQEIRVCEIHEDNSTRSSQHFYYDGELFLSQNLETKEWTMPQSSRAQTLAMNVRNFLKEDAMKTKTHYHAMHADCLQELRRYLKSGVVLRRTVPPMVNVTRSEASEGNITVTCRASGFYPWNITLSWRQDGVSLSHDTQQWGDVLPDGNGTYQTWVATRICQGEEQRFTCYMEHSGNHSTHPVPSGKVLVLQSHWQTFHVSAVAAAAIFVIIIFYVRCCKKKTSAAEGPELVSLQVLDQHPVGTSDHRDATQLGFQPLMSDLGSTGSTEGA
Assay: flow cytometry, CHO-MICA002 cells
observed-property: EC50 (µg/mL)
Respond numerically; units are µg/mL and should not be typed.

Could you share which EC50 value was measured for D2M001-004 (antibody, V domains shown, only the CDRs are tied to the name in the text; copies: 2 + 2) VH: QVQLVQSGAEVKKPGSSVKVSCKASGYAFVDYLIEWVRQAPGQGLEWIGGVNPGSGSTNYAQKFQGRATLTADKSTSTAYMELSSLRSEDTAVYYCARLEGNYVGYWGQGTLVTVSS VL: DIQMTQSPSSLSASVGDRVTITCRASGNIHNYLAWYQQKPGKSPKLLVYHAKTLQSGVPSRFSGSGSGTDYTLTISSLQPEDVATYYCQHFWSTPRTFGGGTKVEIK ?
4.2
